# System: SU-DHL-5 (B-Cell Non-Hodgkin's Lymphoma);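 note: after 72 h of two-drug dosing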
# METHOD_SUMMARY: Bliss excess, mean over the matrix (fraction); higher = more synergy
Assign Bliss excess to each entry below.

>>> endpoint_value("COc1nnc2ccc(N3CCC(c4ccc(OCCN5CCN(C)C(=O)[C@H]5C)cc4)CC3)nn12 [AZD5153] + C=CCn1c(=O)c2cnc(Nc3ccc(N4CCN(C)CC4)cc3)nc2n1-c1cccc(C(C)(C)O)n1 [AZD1775] (first compound max 1 µM, partner max 1 µM)")
0.0156
>>> endpoint_value("CC(=O)c1c(C)c2cnc(Nc3ccc(N4CCNCC4)cn3)nc2n(C2CCCC2)c1=O [Palbociclib] + Cn1cnc2c(F)c(Nc3ccc(Br)cc3Cl)c(C(=O)NOCCO)cc21 [Selumetinib] (first compound max 10 µM, 7x7, partner max 10 µM)")
0.101

Ask | Hello, please tell me recorded Bliss excess for this one: CN(CCO)CC[C@H](CSc1ccccc1)Nc1ccc(S(=O)(=O)NC(=O)c2ccc(N3CCC([C@@H](O)c4ccccc4-c4ccc(Cl)cc4)CC3)cc2)cc1S(=O)(=O)C(F)(F)F [AZD4320] + CN(C)CCCOc1ccc(-c2ccc3ncc4c(c3c2)n(C2CCOCC2)c(=O)n4C)cn1 [AZD0156] (first compound max 1 µM, 7x7, partner max 1 µM)
Reply | -0.066

Recorded values, source the supplement of paper PMC11061612.
